measuredOn: T1, human PRLR on cells (human, UniProt P16471 25-622)
T1 sequence: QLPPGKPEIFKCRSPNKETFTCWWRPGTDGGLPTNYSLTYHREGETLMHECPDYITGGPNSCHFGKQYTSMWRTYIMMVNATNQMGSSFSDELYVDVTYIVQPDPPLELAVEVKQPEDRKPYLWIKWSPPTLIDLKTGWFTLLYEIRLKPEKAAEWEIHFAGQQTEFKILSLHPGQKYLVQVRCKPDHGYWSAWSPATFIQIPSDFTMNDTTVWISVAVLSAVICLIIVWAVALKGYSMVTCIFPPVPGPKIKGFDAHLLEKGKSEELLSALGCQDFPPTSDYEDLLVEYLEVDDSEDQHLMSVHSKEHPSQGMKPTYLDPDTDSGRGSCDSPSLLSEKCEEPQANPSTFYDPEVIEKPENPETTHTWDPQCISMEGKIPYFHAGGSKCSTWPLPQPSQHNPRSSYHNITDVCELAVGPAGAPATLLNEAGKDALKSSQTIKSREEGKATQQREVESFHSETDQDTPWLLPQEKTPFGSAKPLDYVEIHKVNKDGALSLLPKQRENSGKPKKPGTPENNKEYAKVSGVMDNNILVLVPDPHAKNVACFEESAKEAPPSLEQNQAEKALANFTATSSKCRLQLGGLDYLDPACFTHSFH
testName: cell-based or functional assay
Entries and their T47D pPRLR ELISA IC50 values follow.

{"binder": "Ab9 (antibody, V domains shown, murine monoclonal, isotype G2b; also called murine Ab9) VH: EVQLQQSGPELVRPGASVKISCKASGYSFTDYNMHWVKQSHGKSLEWIGYIYPYNGGAGYNQKFKSKATMNVGISSSTAYMELRSLTSEDSAVYYCARGDGNYVGDMDYWGQGTSVTVSS VL: DIQMTQSPASLSASVGETVTITCRASENIYSYLAWYQQKQGKSPQLLVYNAKTLAEGVPSRFSGSGSGTQFSLKINSLQPEDFGSYYCQHHSGTPFTFGSGTKLEIK", "T47D pPRLR ELISA IC50 / µg/mL": 0.072}
{"binder": "LFA102 (antibody, human IgG1, kappa, V domains shown, humanized IgG1 kappa comparator (WO 2008022295)) VH: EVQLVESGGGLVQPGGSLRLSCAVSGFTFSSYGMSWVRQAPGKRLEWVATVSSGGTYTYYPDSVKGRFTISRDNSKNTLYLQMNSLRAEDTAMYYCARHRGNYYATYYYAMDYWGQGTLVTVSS VL: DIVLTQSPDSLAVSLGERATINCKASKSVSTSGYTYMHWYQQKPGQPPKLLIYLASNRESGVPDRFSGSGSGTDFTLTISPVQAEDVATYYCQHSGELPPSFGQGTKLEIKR", "T47D pPRLR ELISA IC50 / µg/mL": 0.069}
{"binder": "Ab10 (antibody, V domains shown, murine monoclonal, isotype G2a; also called murine Ab10) VH: EVQLHQSGPELVKPGASVKISCKASGYTFTDYNMHWMKQSHGKSLEWIGYFYPYNGGTGYNQEFKNKATLTVDISSSTAYMELRRLTSEDSAVYYCARGGWGIYYAMDYWGQGTSVTVSS VL: DIQMTQSPASLSASVGETVTITCRASENIYSYLTWYQQKQGKSPQLLVYNAKTLAEGVPSRFSGSGSGTQFSLKINSLQPEDFGSYHCQHHSVTPLTFGAGTKLELK", "T47D pPRLR ELISA IC50 / µg/mL": 0.362}

The reported numbers originate from patent US20170022281A1.
